# Test system: NCI-H460
# Test: NCI tumour cell line growth inhibition, 48 h
Calls of active or inactive are those of the source. Rule as the data show it: active = GI50 up to about 1.1 µM and inactive = higher.
Write down one outcome, taken from active, inactive

Q: // param item: C#CCOC(=O)C(N)CCCNC(=N)N (configuration not stated) ; yields the recorded call
Result: inactive

Q: What about NNC(=O)c1ccccc1Nc1nc(-c2cccs2)nc2ccc(Br)cc12 ?
Result: inactive

Q: What about C#CC1(O)C(COP(=O)(O)OC(COCCCCCCCCCCCCCCCCCC)COP(=O)(O)OCC2OC(n3cc(C)c(=O)[nH]c3=O)CC2N=[N+]=[N-])OC(n2ccc(N)nc2=O)C1O (configuration not stated) ?
Result: active

Q: What about COCOc1ccc(OC)cc1 ?
Result: inactive

Q: What about O=c1c2cc([N+](=O)[O-])ccc2nc2n1CCCCC2 ?
Result: inactive

Q: What about CC(=O)CC12NC(=O)N(C)N=C1N(C)C(=O)N(C)C2=O (configuration not stated) ?
Result: inactive

Q: What about COc1ccc(NC(=O)c2cc(OC)c(OC)c(OC)c2)cc1 ?
Result: inactive
